// values below are reported CC50 at 24 h
experiment-notes: Cytotoxicity against mouse NIH/3T3 cells after 24 hrs by MTS assay
Assay type: cell-based, NIH3T3
condition-parameters: read-out: LD50
Write the answer as a number in µg/mL, unit excluded.

Please review the following examples before continuing.
CC(C)C1Cc2sc3[nH]c(=O)n(C/C=C/c4ccc(O)cc4)c(=O)c3c2C(Cc2ccccc2)C1 (centres undefined) : 42
CCOC(=O)c1sc2[nH]c(=O)n(C/C=C/c3ccc(O)cc3)c(=O)c2c1CCc1ccccc1 : 52
COc1ccc(/C=C/Cn2c(=O)[nH]c3sc4c(c3c2=O)C(Cc2ccccc2)CC(C(C)C)C4)cc1 (centres undefined) : 120

Here is another compound to look at.
I'd like to know its CC50 at 24 h. The compound in question is CCOC(=O)c1sc2[nH]c(=O)n(C/C=C/c3ccc(OC)cc3)c(=O)c2c1CCc1ccccc1
98

----------
Test system: Streptococcus pneumoniae
experiment-notes: Antibacterial activity against Streptococcus pneumoniae ATCC 49619 after 18 to 24 hrs by broth microdilution method
Assay type: functional
experimental-endpoint: MIC

CN[C@H](CC(C)C)C(=O)N[C@H]1C(=O)N[C@@H](CC(N)=O)C(=O)N[C@H]2C(=O)N[C@H]3C(=O)N[C@H](C(=O)N[C@H](C(=O)O)c4cc(O)cc(O)c4-c4cc3ccc4O)[C@H](O)c3ccc(c(Cl)c3)Oc3cc2cc(c3O[C@@H]2O[C@H](CO)[C@@H](O)[C@H](O)[C@H]2O[C@H]2C[C@](C)(N)[C@H](O)[C@H](C)O2)Oc2ccc(cc2Cl)[C@H]1O : 0.5 µg/mL

Fill in: MIC of CCOC(=O)c1c(NC(=O)NC/C=C/c2ccc(O[Si](C)(C)C(C)(C)C)cc2)sc2c1C(Cc1ccccc1)CC(C(C)C)C2 (stereo not drawn) is ___
> 32 µg/mL

I would be grateful if you could share the reported MIC for CCOC(=O)c1sc2[nH]c(=O)n(C/C=C/c3ccc(O)cc3)c(=O)c2c1CCc1ccccc1 .
8 µg/mL

// lookup MIC for COc1ccc(/C=C/Cn2c(=O)[nH]c3sc4c(c3c2=O)C(Cc2ccccc2)CC(C(C)C)C4)cc1 (stereo not drawn)
32 µg/mL

Using the record for CCOC(=O)c1sc(NC(=O)NC/C=C/c2ccc(OC)cc2)c(C(=O)OCC)c1CCc1ccccc1 , report its MIC.
> 32 µg/mL

For CCOC(=O)c1sc(NC(=O)NC/C=C/c2ccc(O[Si](C)(C)C(C)(C)C)cc2)c(C(=O)OCC)c1CCc1ccccc1 , what is its reported MIC?
> 32 µg/mL

Request the reported MIC associated with CCOC(=O)c1sc2[nH]c(=O)n(C/C=C/c3ccc(OC)cc3)c(=O)c2c1CCc1ccccc1
> 32 µg/mL

Fill in the blank: the reported MIC of CC(C)C1Cc2sc3[nH]c(=O)n(C/C=C/c4ccc(O)cc4)c(=O)c3c2C(Cc2ccccc2)C1 (stereo not drawn) is ____.
32 µg/mL

----------
System: Pseudomonas aeruginosa
experiment-notes: Antibacterial activity against Pseudomonas aeruginosa ATCC 27853 after 18 to 24 hrs by broth microdilution method
Type: functional
experimental-endpoint: MIC

CN[C@H](CC(C)C)C(=O)N[C@H]1C(=O)N[C@@H](CC(N)=O)C(=O)N[C@H]2C(=O)N[C@H]3C(=O)N[C@H](C(=O)N[C@H](C(=O)O)c4cc(O)cc(O)c4-c4cc3ccc4O)[C@H](O)c3ccc(c(Cl)c3)Oc3cc2cc(c3O[C@@H]2O[C@H](CO)[C@@H](O)[C@H](O)[C@H]2O[C@H]2C[C@](C)(N)[C@H](O)[C@H](C)O2)Oc2ccc(cc2Cl)[C@H]1O : > 32 µg/mL

State the recorded MIC for this entry: CCOC(=O)c1sc2[nH]c(=O)n(C/C=C/c3ccc(OC)cc3)c(=O)c2c1CCc1ccccc1
> 32 µg/mL

Could you share which MIC value was measured for COc1ccc(/C=C/Cn2c(=O)[nH]c3sc4c(c3c2=O)C(Cc2ccccc2)CC(C(C)C)C4)cc1 (stereo not drawn) ?
> 32 µg/mL

Value lookup for MIC; key = CCOC(=O)c1sc(NC(=O)NC/C=C/c2ccc(OC)cc2)c(C(=O)OCC)c1CCc1ccccc1
> 32 µg/mL

What does the record list as MIC for CC(C)C1Cc2sc3[nH]c(=O)n(C/C=C/c4ccc(O)cc4)c(=O)c3c2C(Cc2ccccc2)C1 (stereo not drawn) ?
16 µg/mL

Look up MIC for this compound: CCOC(=O)c1c(NC(=O)NC/C=C/c2ccc(O[Si](C)(C)C(C)(C)C)cc2)sc2c1C(Cc1ccccc1)CC(C(C)C)C2 (stereo not drawn)
> 32 µg/mL

Which value of MIC has been reported for CCOC(=O)c1sc2[nH]c(=O)n(C/C=C/c3ccc(O)cc3)c(=O)c2c1CCc1ccccc1 in the records?
32 µg/mL

Please look up its MIC: CCOC(=O)c1sc(NC(=O)NC/C=C/c2ccc(O[Si](C)(C)C(C)(C)C)cc2)c(C(=O)OCC)c1CCc1ccccc1
> 32 µg/mL

----------
experiment-notes: Toxicity in sheep RBC assessed as hemolysis at 25 times MIC after 1 hr
Assay type: cell-based, Ovis aries, Erythrocyte
condition-parameters: sheep red blood cells, read-out: Activity
experimental-endpoint: hemolysis at 1 h, 25 times MIC (%)
Express the result in % but write the number alone.

State the recorded hemolysis at 1 h, 25 times MIC for this entry: CC(C)C1Cc2sc3[nH]c(=O)n(C/C=C/c4ccc(O)cc4)c(=O)c3c2C(Cc2ccccc2)C1 (stereo unspecified)
7

----------
experiment-notes: Therapeutic index, ratio of LD50 for mouse NIH/3T3 cells to MIC for vancomycin-resistant Staphylococcus aureus MI
Assay type: cell-based
condition-parameters: read-out: TI
Each item that follows carries a reported selectivity ratio.

Worked cases, selectivity ratio given:
COc1ccc(/C=C/Cn2c(=O)[nH]c3sc4c(c3c2=O)C(Cc2ccccc2)CC(C(C)C)C4)cc1 (centres undefined) : 4
CC(C)C1Cc2sc3[nH]c(=O)n(C/C=C/c4ccc(O)cc4)c(=O)c3c2C(Cc2ccccc2)C1 (centres undefined) : 5
CCOC(=O)c1sc2[nH]c(=O)n(C/C=C/c3ccc(O)cc3)c(=O)c2c1CCc1ccccc1 : 26

Please look at the following compound next.
Fill in: selectivity ratio of CCOC(=O)c1sc2[nH]c(=O)n(C/C=C/c3ccc(OC)cc3)c(=O)c2c1CCc1ccccc1 is ___
3

----------
Test system: Klebsiella aerogenes
experiment-notes: Antibacterial activity against Enterobacter aerogenes CEF 3978 after 18 to 24 hrs by broth microdilution method
Type: functional
Quick reference for MIC among some compounds

CCOC(=O)c1c(NC(=O)NC/C=C/c2ccc(O[Si](C)(C)C(C)(C)C)cc2)sc2c1C(Cc1ccccc1)CC(C(C)C)C2 (stereo not drawn) : > 32 µg/mL
CCOC(=O)c1sc(NC(=O)NC/C=C/c2ccc(O[Si](C)(C)C(C)(C)C)cc2)c(C(=O)OCC)c1CCc1ccccc1 : > 32 µg/mL

Given the entry CCOC(=O)c1sc(NC(=O)NC/C=C/c2ccc(OC)cc2)c(C(=O)OCC)c1CCc1ccccc1 , report its measured MIC.
> 32 µg/mL
